All figures here come from ChEMBL document CHEMBL1149918.

Target under test: Cholecystokinin receptor type A (Homo sapiens, UniProt P32238)
Sequence (P32238 whole entry): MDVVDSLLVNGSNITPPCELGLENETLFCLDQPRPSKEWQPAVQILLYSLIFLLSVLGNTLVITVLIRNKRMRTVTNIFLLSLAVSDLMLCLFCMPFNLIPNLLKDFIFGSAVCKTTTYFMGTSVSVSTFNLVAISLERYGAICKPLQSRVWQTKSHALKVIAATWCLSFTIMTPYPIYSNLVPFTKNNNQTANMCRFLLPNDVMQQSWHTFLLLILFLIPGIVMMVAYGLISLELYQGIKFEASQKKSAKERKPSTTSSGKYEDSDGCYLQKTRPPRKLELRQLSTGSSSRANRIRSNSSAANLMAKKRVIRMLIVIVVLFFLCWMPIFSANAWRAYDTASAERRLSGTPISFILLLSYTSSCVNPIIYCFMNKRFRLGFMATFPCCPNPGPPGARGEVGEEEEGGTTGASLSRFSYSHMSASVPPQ
Assay notes: Tested for its selectivity against human Cholecystokinin type A receptor isolated from a human gallbladder cDNA library and stably transfected into a COSM6 cell line; (n=1)
Assay type: cell-based
Would you mind telling me the reported pKi of each entry?
Give bare numbers, as −log10 of the molar value.

# Compound, pKi
data = [
    ("O=C(Nc1ccc(F)cc1)NC1C(=O)N(CC(=O)N2CC3CCC(CC3)C2)c2ccccc2N(c2ccccc2F)C1=O (racemic)", 8.00),
    ("O=C(Nc1ccc(F)cc1)N[C@H]1C(=O)N(CC(=O)N2CCCC2)c2ccccc2N(C2CCCCC2)C1=O", 7.10),
]

Ask: What measured pKi goes with O=C(Nc1ccc(F)cc1)N[C@H]1C(=O)N(CC(=O)N2CCCC2)c2ccccc2N(C2CCCCCC2)C1=O ?
Result: 7.10
